// values below are reported percentage of EdU-negative
Test system: hTERT-HMEC;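 further: secreted proteins added to cultured cells, EdU pulse at the end, nuclei found by Hoechst imaging, EdU status from nuclear versus surrounding ring intensity ratio, PBS as neutral control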
Experiment: percentage of EdU-negative (G0-arrested) nuclei per well, 72 h; higher = more G0 arrest
Conditions: protein concentration 0.225 µM; reference: sequence is the full UniProt precursor, the tested protein was the secreted form or ectodomain
Observed Property: percentage of EdU-negative (%)

INSERT INTO results (monomer_sequence, measured_target, reported_value) VALUES
  ('MERASLIQKAKLAEQAERYEDMAAFMKGAVEKGEELSCEERNLLSVAYKNVVGGQRAAWRVLSSIEQKSNEEGSEEKGPEVREYREKVETELQGVCDTVLGLLDSHLIKEAGDAESRVFYLKMKGDYYRYLAEVATGDDKKRIIDSARSAYQEAMDISKKEMPPTNPIRLGLALNFSVFHYEIANSPEEAISLAKTTFDEAMADLHTLSEDSYKDSTLIMQLLRDNLTLWTADNAGEEGGEAPQEPQS', 'hTERT-HMEC', 5.22),
  ('MRAPHLHLSAASGARALAKLLPLLMAQLWAAEAALLPQNDTRLDPEAYGSPCARGSQPWQVSLFNGLSFHCAGVLVDQSWVLTAAHCGNKPLWARVGDDHLLLLQGEQLRRTTRSVVHPKYHQGSGPILPRRTDEHDLMLLKLARPVVLGPRVRALQLPYRCAQPGDQCQVAGWGTTAARRVKYNKGLTCSSITILSPKECEVFYPGVVTNNMICAGLDRGQDPCQSDSGGPLVCDETLQGILSWGVYPCGSAQHPAVYTQICKYMSWINKVIRSN', 'hTERT-HMEC', 6.32),
  ('MALRVVRSVRALLCTLRAVPSPAAPCPPRPWQLGVGAVRTLRTGPALLSVRKFTEKHEWVTTENGIGTVGISNFAQEALGDVVYCSLPEVGTKLNKQDEFGALESVKAASELYSPLSGEVTEINEALAENPGLVNKSCYEDGWLIKMTLSNPSELDELMSEEAYEKYIKSIEE', 'hTERT-HMEC', 10.4);
